Where these numbers come from: patent US5760036A

Collected inhibition at 10 µM values appear next to each entry.
Molecular target: HIV protease (Human immunodeficiency virus type 1 group M subtype B, UniProt P04585)
Construct: and purified protease
Test: HIV Protease Assay
Format: biochemical
Conditions: pH 5.5, 10 μM inhibitor, 4% DMSO, 450 μM substrate, pH 5.5, 30 minutes at 37° C., RP-HPLC; read-out: HIV Protease % Inhibition at 10 μM
Kindly answer with a numeric value in %, unit omitted.

Compound	U	inhibition at 10 µM
CC[C@H](C)[C@H](NC(=O)OCc1ccccc1)[C@H](O)CNC[C@@H](O)[C@H](Cc1ccccc1)NC(=O)OC(C)(C)C	%	83
CC(C)(C)OC(=O)N[C@@H](C/C=C/c1ccc(OCC(=O)N2CCOCC2)cc1)[C@H](O)CNC[C@@H](O)[C@H](Cc1ccccc1)NC(=O)OC(C)(C)C	%	97
CC(C)(C)OC(=O)N[C@@H](Cc1ccccc1)[C@H](O)CNC[C@@H](O)[C@H](Cc1ccccc1)NC(=O)C(N)C(F)(F)F (some centres unmarked)	%	84
CC(C)(C)OC(=O)N[C@@H](Cc1ccccc1)[C@H](O)CNC[C@@H](O)[C@H](Cc1ccccc1)NC(=O)C(O)C(F)(F)F (single isomer, unassigned; isomer a)	%	99

Proceeding to the next compound to report its inhibition at 10 µM.
[ask] Request - read-out inhibition at 10 µM | tested on HIV protease (Human immunodeficiency virus type 1 group M subtype B, UniProt P04585) | compound CNC(=O)N[C@H](C(=O)N[C@@H](Cc1ccccc1)[C@H](O)CNC[C@@H](O)[C@H](Cc1ccccc1)NC(=O)OC(C)(C)C)C(C)(C)C (relative stereo)
[reply] 98
